# System: Trichoderma virens ATCC 9645
# METHOD_SUMMARY: growth yield (OD600) with compound + IPBC relative to untreated control; higher = less growth inhibition
# MEASUREMENT_CONDITIONS: compound concentration: 100 uM; IPBC concentration: 200 ng/ml; 72 h
Where a name gives a salt, the structure may show the parent alone. The whole screen tested about 1,300 compounds, of which about 130 (10%) showed an effect of 50% or more. Shown is part of a subset that was picked to be rich in strong results.
Entry flag: YES if growth yield reaches 90%; NO if it does not.

# MOLECULE, CLASSIFICATION
records = [
    ("CCN(CC)CCNc1ccc(CO)c2sc3ccccc3c(=O)c12 [Hycanthone] + CCCCNC(=O)OCC#CI [3-iodo-2-propynyl butylcarbamate (IPBC)]", "YES"),
    ("C(=C\\c1ccccc1)/CN1CCN(C(c2ccccc2)c2ccccc2)CC1 [Cinnarizine] + CCCCNC(=O)OCC#CI [3-iodo-2-propynyl butylcarbamate (IPBC)]", "YES"),
    ("CC(CCc1ccccc1)NC(C)C(O)c1ccc(O)cc1 (stereo not given) [Nylidrin] + CCCCNC(=O)OCC#CI [3-iodo-2-propynyl butylcarbamate (IPBC)]", "YES"),
    ("Nc1c2ccccc2nc2ccccc12 [Aminacrine] + CCCCNC(=O)OCC#CI [3-iodo-2-propynyl butylcarbamate (IPBC)]", "YES"),
    ("Nc1ccc(/N=N/c2ccccc2)c(N)n1 [Phenazopyridine hydrochloride] + CCCCNC(=O)OCC#CI [3-iodo-2-propynyl butylcarbamate (IPBC)]", "NO"),
    ("Fc1ccc(C(c2ccc(F)cc2)N2CCN(C/C=C/c3ccccc3)CC2)cc1 [Flunarizine dihydrochloride] + CCCCNC(=O)OCC#CI [3-iodo-2-propynyl butylcarbamate (IPBC)]", "NO"),
    ("CCOc1nc2cccc(C(=O)OCc3oc(=O)oc3C)c2n1Cc1ccc(-c2ccccc2-c2noc(=O)[nH]2)cc1 [Azilsartan kamedoxomil] + CCCCNC(=O)OCC#CI [3-iodo-2-propynyl butylcarbamate (IPBC)]", "YES"),
    ("CCCCCCCCNC(C)C(O)c1ccc(SC(C)C)cc1 (stereo not given) [Suloctidil] + CCCCNC(=O)OCC#CI [3-iodo-2-propynyl butylcarbamate (IPBC)]", "NO"),
    ("CCCCc1oc2ccc(NS(C)(=O)=O)cc2c1C(=O)c1ccc(OCCCN(CCCC)CCCC)cc1 [Dronedarone hydrochloride] + CCCCNC(=O)OCC#CI [3-iodo-2-propynyl butylcarbamate (IPBC)]", "NO"),
    ("N#Cc1cc(NC(=O)C(=O)O)c(Cl)c(NC(=O)C(=O)O)c1 [Lodoxamide] + CCCCNC(=O)OCC#CI [3-iodo-2-propynyl butylcarbamate (IPBC)]", "YES"),
    ("CCCCc1ncc(/C=C(\\Cc2cccs2)C(=O)O)n1Cc1ccc(C(=O)O)cc1 [Eprosartan mesylate] + CCCCNC(=O)OCC#CI [3-iodo-2-propynyl butylcarbamate (IPBC)]", "YES"),
    ("O=C(NCC(O)CO)c1c(I)c(C(=O)NCC(O)CO)c(I)c(N(CCO)C(=O)CO)c1I (stereo not given) [Ioversol] + CCCCNC(=O)OCC#CI [3-iodo-2-propynyl butylcarbamate (IPBC)]", "YES"),
    ("COC1=C(OC)C(=O)C(CCCCCCCCCCO)=C(C)C1=O [Idebenone] + CCCCNC(=O)OCC#CI [3-iodo-2-propynyl butylcarbamate (IPBC)]", "NO"),
    ("c1ccc(C2CN3CCSC3=N2)cc1 (stereo not given) [Tetramisole hydrochloride] + CCCCNC(=O)OCC#CI [3-iodo-2-propynyl butylcarbamate (IPBC)]", "YES"),
    ("CN(C)c1cc(NC(=O)CNC(C)(C)C)c(O)c2c1C[C@H]1C[C@H]3[C@H](N(C)C)C(O)=C(C(N)=O)C(=O)[C@@]3(O)C(O)=C1C2=O [Tigecycline] + CCCCNC(=O)OCC#CI [3-iodo-2-propynyl butylcarbamate (IPBC)]", "NO"),
]

----------
# Tested on: Trichoderma virens ATCC 9645
# METHOD_SUMMARY: growth yield (OD600) with compound + IPBC relative to untreated control; higher = less growth inhibition
# MEASUREMENT_CONDITIONS: compound concentration: 100 uM; IPBC concentration: 200 ng/ml; 40 h
Where a name gives a salt, the structure may show the parent alone. Among all 1,300 compounds or so, about 130 (10%) showed an effect of 50% or more. This excerpt belongs to a sample that is enriched for strong results.
growth yield values, listed per item
MEASURED_ATTRIBUTE: growth yield

# MOLECULE, MEASURED_ATTRIBUTE, MEASURED
rows = [
    ("CCc1oc2ccccc2c1C(=O)c1cc(Br)c(O)c(Br)c1 [Benzbromarone] + CCCCNC(=O)OCC#CI [3-iodo-2-propynyl butylcarbamate (IPBC)]", "growth yield", "43.7%"),
    ("CN(C)CCOC(c1ccccc1)c1ccccc1 [Diphenhydramine hydrochloride] + CCCCNC(=O)OCC#CI [3-iodo-2-propynyl butylcarbamate (IPBC)]", "growth yield", "87.2%"),
    ("CC/C(=C(\\c1ccccc1)c1ccc(OCCN(C)C)cc1)c1ccccc1 [Tamoxifen citrate] + CCCCNC(=O)OCC#CI [3-iodo-2-propynyl butylcarbamate (IPBC)]", "growth yield", "3.34%"),
    ("NC(CO)C(=O)NNCc1ccc(O)c(O)c1O (centres undefined) [Benserazide hydrochloride] + CCCCNC(=O)OCC#CI [3-iodo-2-propynyl butylcarbamate (IPBC)]", "growth yield", "63.9%"),
    ("Nc1ccc(/N=N/c2ccccc2)c(N)n1 [Phenazopyridine hydrochloride] + CCCCNC(=O)OCC#CI [3-iodo-2-propynyl butylcarbamate (IPBC)]", "growth yield", "7.15%"),
    ("CC(=O)CC(c1ccccc1)c1c(O)c2ccccc2oc1=O (centres undefined) [Warfarin] + CCCCNC(=O)OCC#CI [3-iodo-2-propynyl butylcarbamate (IPBC)]", "growth yield", "88.5%"),
    ("CCN(CC)CCOc1ccc(C(=C(Cl)c2ccccc2)c2ccccc2)cc1 [Clomiphene citrate (Z,E)] + CCCCNC(=O)OCC#CI [3-iodo-2-propynyl butylcarbamate (IPBC)]", "growth yield", "3.02%"),
    ("CCOc1cc(CC(=O)N[C@@H](CC(C)C)c2ccccc2N2CCCCC2)ccc1C(=O)O [Repaglinide] + CCCCNC(=O)OCC#CI [3-iodo-2-propynyl butylcarbamate (IPBC)]", "growth yield", "104%"),
    ("CN(C)CCOC(=O)COc1ccc(Cl)cc1 [Meclofenoxate hydrochloride] + CCCCNC(=O)OCC#CI [3-iodo-2-propynyl butylcarbamate (IPBC)]", "growth yield", "93.2%"),
    ("COc1cc2ncnc(Nc3ccc(F)c(Cl)c3)c2cc1OCCCN1CCOCC1 [Gefitinib] + CCCCNC(=O)OCC#CI [3-iodo-2-propynyl butylcarbamate (IPBC)]", "growth yield", "16.4%"),
    ("C#C[C@]1(O)CC[C@H]2[C@@H]3[C@H](C)CC4=C(CCC(=O)C4)[C@H]3CC[C@@]21C [Tibolone] + CCCCNC(=O)OCC#CI [3-iodo-2-propynyl butylcarbamate (IPBC)]", "growth yield", "80.1%"),
    ("C=C(NC(=O)C(=C)NC(=O)c1csc(C2=N[C@@H]3c4csc(n4)[C@H]4NC(=O)c5csc(n5)[C@H]([C@](C)(O)[C@@H](C)O)NC(=O)[C@H]5CSC(=N5)/C(=C/C)NC(=O)[C@H]([C@@H](C)O)NC(=O)c5csc(n5)[C@]3(CC2)NC(=O)[C@H](C)NC(=O)C(=C)NC(=O)[C@H](C)NC(=O)[C@H]([C@@H](C)CC)N[C@@H]2C=Cc3c([C@H](C)O)cc(nc3[C@H]2O)C(=O)O[C@@H]4C)n1)C(N)=O [Thiostrepton] + CCCCNC(=O)OCC#CI [3-iodo-2-propynyl butylcarbamate (IPBC)]", "growth yield", "101%"),
    ("CC(=O)NCCCS(=O)(=O)O [Acamprosate calcium] + CCCCNC(=O)OCC#CI [3-iodo-2-propynyl butylcarbamate (IPBC)]", "growth yield", "103%"),
    ("CCCCOc1ccc(OCCCN2CCOCC2)cc1 [Pramoxine hydrochloride] + CCCCNC(=O)OCC#CI [3-iodo-2-propynyl butylcarbamate (IPBC)]", "growth yield", "80.1%"),
    ("COc1ccc([C@@H]2Sc3ccccc3N(CCN(C)C)C(=O)[C@@H]2OC(C)=O)cc1 [Diltiazem hydrochloride] + CCCCNC(=O)OCC#CI [3-iodo-2-propynyl butylcarbamate (IPBC)]", "growth yield", "80.8%"),
    ("CN(C)CCOc1ccc(/C(=C(/CCCl)c2ccccc2)c2ccccc2)cc1 [Toremifene] + CCCCNC(=O)OCC#CI [3-iodo-2-propynyl butylcarbamate (IPBC)]", "growth yield", "3.49%"),
    ("C[N+]1(C)CCOC(O)(c2ccc(-c3ccc(C4(O)C[N+](C)(C)CCO4)cc3)cc2)C1 (centres undefined) [Hemicholinium bromide] + CCCCNC(=O)OCC#CI [3-iodo-2-propynyl butylcarbamate (IPBC)]", "growth yield", "19.1%"),
    ("N[C@@H]1CCCCN(c2c(F)cc3c(=O)c(C(=O)O)cn(C4CC4)c3c2Cl)C1 [Besifloxacin hydrochloride] + CCCCNC(=O)OCC#CI [3-iodo-2-propynyl butylcarbamate (IPBC)]", "growth yield", "88.5%"),
    ("Cc1nnc(NS(=O)(=O)c2ccc(N)cc2)s1 [Sulfamethizole] + CCCCNC(=O)OCC#CI [3-iodo-2-propynyl butylcarbamate (IPBC)]", "growth yield", "93.7%"),
]
